ASSAYED_SYSTEM: human cloned 5-HT2B receptors (Homo sapiens, UniProt P41595)
Construct: expressed in transfected cells; host or cells: CHO-K1
Sequence (P41595 whole entry): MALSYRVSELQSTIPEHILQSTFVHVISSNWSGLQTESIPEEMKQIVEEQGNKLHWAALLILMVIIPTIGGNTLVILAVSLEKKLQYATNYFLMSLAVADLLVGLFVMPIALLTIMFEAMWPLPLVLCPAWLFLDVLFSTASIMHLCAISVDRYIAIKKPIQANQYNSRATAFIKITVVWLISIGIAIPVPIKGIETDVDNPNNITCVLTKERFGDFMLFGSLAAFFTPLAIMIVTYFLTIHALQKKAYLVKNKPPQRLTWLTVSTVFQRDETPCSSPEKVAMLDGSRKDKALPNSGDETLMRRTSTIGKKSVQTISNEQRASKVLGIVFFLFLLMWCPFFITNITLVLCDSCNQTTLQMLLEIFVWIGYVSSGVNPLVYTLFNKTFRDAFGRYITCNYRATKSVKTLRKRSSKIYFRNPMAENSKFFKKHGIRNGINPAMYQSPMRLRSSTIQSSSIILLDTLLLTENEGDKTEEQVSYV
PROTOCOL_TEXT: Human cloned 5-HT2B receptor binding assay
TEST_CONDITIONS: [3H]LSD (1 nM) displacement, membranes of CHO-K1 cells expressing cloned 5-HT2B receptor; read-out: 5-HT2B pKi (converted)
Counter-ions that a name gives are not always drawn.
Known Ki of a selection of compounds
REPORTED_METRIC: Ki

[
  {
    "COMPOUND": "CC(=O)Nc1nc(-c2cccc3ccc(Br)cc23)c[nH]1 [Compound 103G]",
    "ENDPOINT_RESULT": "< 100 nM"
  },
  {
    "COMPOUND": "COc1ccccc1-c1ccc(Nc2nc(N)n(C)n2)cc1 [Compound 411B]",
    "ENDPOINT_RESULT": "< 1000 nM"
  },
  {
    "COMPOUND": "Cn1nc(Nc2ccc(-c3ccccc3)cc2)nc1N [Compound 411A, trifluoroacetic acid]",
    "ENDPOINT_RESULT": "< 1000 nM"
  },
  {
    "COMPOUND": "Nc1ncc(-c2cccc(-c3ccccc3)c2)o1 [Compound 209A, 5-Biphenyl-3-yl-oxazol-2-ylamine]",
    "ENDPOINT_RESULT": "< 316 nM"
  },
  {
    "COMPOUND": "Cc1cc(Nc2ccc(Br)cc2)nc(N)n1 [Compound 2F, hydrochloride]",
    "ENDPOINT_RESULT": "< 1000 nM"
  },
  {
    "COMPOUND": "Cc1cccc(-c2cccc(Nc3cc(C)nc(N)n3)c2)c1 [Compound 10E, trifluoroacetic acid]",
    "ENDPOINT_RESULT": "< 100 nM"
  },
  {
    "COMPOUND": "Cc1cccc(-c2cc(Nc3cc(C)nc(N)n3)ccc2C)c1",
    "ENDPOINT_RESULT": "< 100 nM"
  },
  {
    "COMPOUND": "CC(=O)Nc1cccc(-c2cccc(Nc3cc(C)nc(N)n3)c2)c1 [Compound 10I, hydrochloride]",
    "ENDPOINT_RESULT": "< 1000 nM"
  },
  {
    "COMPOUND": "Cc1cc(Nc2cccc(Oc3ccccc3)c2)nc(N)n1 [Compound 2AD, hydrochloride]",
    "ENDPOINT_RESULT": "< 1000 nM"
  },
  {
    "COMPOUND": "Cc1cc(Nc2ccc(C)c(I)c2)nc(N)n1",
    "ENDPOINT_RESULT": "< 100 nM"
  },
  {
    "COMPOUND": "Cc1cc(Nc2cccc(-c3ccccc3)c2)nc(N)n1 [Compound 10A, trifluoroacetic acid]",
    "ENDPOINT_RESULT": "< 100 nM"
  },
  {
    "COMPOUND": "CCOc1ccc2ccccc2c1-c1c[nH]c(NC(C)=O)n1 [Compound 103A]",
    "ENDPOINT_RESULT": "< 100 nM"
  },
  {
    "COMPOUND": "COc1ccc2ccccc2c1-c1c[nH]c(N)n1 [Compound 104C]",
    "ENDPOINT_RESULT": "< 100 nM"
  },
  {
    "COMPOUND": "Cc1cc(Nc2ccc(I)cc2)nc(N)n1 [Compound 2E, hydrochloride]",
    "ENDPOINT_RESULT": "< 1000 nM"
  },
  {
    "COMPOUND": "Cc1oc(N)nc1-c1cccc(-c2ccccc2)c1 [Compound 218A, trifluoroacetic acid]",
    "ENDPOINT_RESULT": "< 1000 nM"
  },
  {
    "COMPOUND": "Cc1cccc(-c2ccc(Nc3nc(N)n(C)n3)cc2)c1 [Compound 411C, trifluoroacetic acid]",
    "ENDPOINT_RESULT": "< 1000 nM"
  },
  {
    "COMPOUND": "COc1ccccc1-c1cccc(-c2oc(N)nc2C)c1 [Compound 219B, trifluoroacetic acid]",
    "ENDPOINT_RESULT": "< 100 nM"
  },
  {
    "COMPOUND": "COc1ccc2ccccc2c1-c1c[nH]c(NC(C)=O)n1 [Compound 103C]",
    "ENDPOINT_RESULT": "< 100 nM"
  },
  {
    "COMPOUND": "COc1ccccc1-c1ccc(OC)c(-c2cnc(N)o2)c1 [Compound 224B, trifluoroacetic acid]",
    "ENDPOINT_RESULT": "< 316 nM"
  },
  {
    "COMPOUND": "Nc1ncc(-c2cccc(-c3ccc(F)cc3)c2)o1 [Compound 209J, trifluoroacetic acid]",
    "ENDPOINT_RESULT": "< 1000 nM"
  },
  {
    "COMPOUND": "Cc1cc(Oc2cccc3ccccc23)nc(N)n1",
    "ENDPOINT_RESULT": "< 100 nM"
  },
  {
    "COMPOUND": "Cc1cc(C)cc(-c2cccc(-c3cnc(N)o3)c2)c1 [Compound 209K, trifluoroacetic acid]",
    "ENDPOINT_RESULT": "< 1000 nM"
  },
  {
    "COMPOUND": "Cc1cc(Nc2cccc(-c3cccc(O)c3)c2)nc(N)n1 [Compound 10G, trifluoroacetic acid]",
    "ENDPOINT_RESULT": "< 100 nM"
  },
  {
    "COMPOUND": "Cc1cccc(-c2cccc(-c3nc(N)oc3C)c2)c1 [Compound 218B, trifluoroacetic acid]",
    "ENDPOINT_RESULT": "< 1000 nM"
  },
  {
    "COMPOUND": "CC(=O)Nc1nc(-c2cccc(-c3ccccc3)c2)c[nH]1",
    "ENDPOINT_RESULT": "< 1000 nM"
  },
  {
    "COMPOUND": "COc1c(-c2cnc(NC(C)=O)[nH]2)ccc2ccccc12 [Compound 103E]",
    "ENDPOINT_RESULT": "< 100 nM"
  },
  {
    "COMPOUND": "Nc1nc(-c2ccc(F)c3ccccc23)c[nH]1 [Compound 104F]",
    "ENDPOINT_RESULT": "< 100 nM"
  },
  {
    "COMPOUND": "CC(=O)Nc1ncc(-c2sc3ccccc3c2C)[nH]1 [Compound 103O]",
    "ENDPOINT_RESULT": "< 1000 nM"
  },
  {
    "COMPOUND": "Cc1c(-c2cnc(N)[nH]2)sc2ccccc12 [Compound 104O]",
    "ENDPOINT_RESULT": "< 316 nM"
  },
  {
    "COMPOUND": "Cc1cc(Nc2ccc(F)cc2)nc(N)n1 [Compound 2I, hydrochloride]",
    "ENDPOINT_RESULT": "< 1000 nM"
  },
  {
    "COMPOUND": "Cc1cc(Nc2cccc(-c3cccnc3)c2)nc(N)n1 [Compound 10D, bis trifluoroacetic acid]",
    "ENDPOINT_RESULT": "< 1000 nM"
  },
  {
    "COMPOUND": "COc1ccc(Nc2cc(C)nc(N)n2)cc1Cl [Compound 2AC, hydrochloride]",
    "ENDPOINT_RESULT": "< 1000 nM"
  },
  {
    "COMPOUND": "Nc1nccc(Nc2ccc(I)cc2)n1",
    "ENDPOINT_RESULT": "< 1000 nM"
  },
  {
    "COMPOUND": "Cc1cc(Nc2cccc(Br)c2)nc(N)n1",
    "ENDPOINT_RESULT": "< 1000 nM"
  },
  {
    "COMPOUND": "COc1ccc(-c2ccccc2)cc1-c1cnc(N)o1 [Compound 224A, trifluoroacetic acid]",
    "ENDPOINT_RESULT": "< 1000 nM"
  }
]

Data origin: patent US20090018150A1
